The origin of these recorded values is paper PMC5540273.

Test system: BMPR1A
Details: concentration: 1 μM,replicates: in singlicate; n = 1;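 further: KINOMEscan kinase panel screen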
The entries below come with measured %Inh values attached.
observable: %Inh (%)

{"columns": ["smiles_representation", "observable", "unit_spec", "experimental_result"],
 "data": [
  ["O=C(Nc1cccc(C(F)(F)F)c1)c1cccc(Oc2ccc3nccn3n2)c1", "%Inh", "%", 0],
  ["CCN1CCN(CCCC(=O)Nc2n[nH]c3nc(-c4ccc(O)cc4)c(Br)cc23)CC1", "%Inh", "%", 0],
  ["COc1cccc(OC)c1C(=O)Nc1cccc(-c2nn3ccccc3c2-c2ccnc(Nc3cccc(F)c3)n2)c1", "%Inh", "%", 9]
]}

----------
Tested on: MEK6
Construct: gene MAP2K6
Details: concentration: 1 μM,replicates: in singlicate; n = 1
The entries below come with measured %Inh values attached.

{"columns": ["molecule", "unit_spec", "%Inh"],
 "data": [
  ["CSc1nccc(-c2c(-c3ccc(F)cc3)ncn2CCCN2CCOCC2)n1.Cl", "%", 15],
  ["OCCn1cc(-c2cnc3nnn(Cc4ccc5ncccc5c4)c3n2)cn1", "%", 0],
  ["NC(=O)Nc1sc(-c2ccc(F)cc2)cc1C(N)=O", "%", 21],
  ["COC(=O)c1cccc(NC(=O)NC2CCN(c3ccnc(NCc4ccc(F)cc4)n3)CC2)c1", "%", 0],
  ["COc1ccc(Nc2nccc(N3CCC(NC(=O)c4cccc(C#N)c4)C3)n2)cc1 (stereo not shown)", "%", 0],
  ["Cc1cccc2c(-c3ccncc3)c(-c3ccc(F)cc3)nn12.Cl", "%", 0],
  ["C[C@@H]1CCN(C(=O)N2CCCC2)C[C@@H]1N(C)c1ncnc2[nH]ccc12", "%", 20],
  ["COc1cc2nccc(Nc3ccc(Oc4ccccc4)cc3)c2cc1OC.Cl", "%", 0],
  ["Cc1n[nH]c2cc(Nc3ccnc(Nc4cccc(CN5CCOCC5)c4)n3)ccc12", "%", 0],
  ["CC(C(=O)NC1CCN(c2ccnc(Nc3ccc(F)cc3)n2)C1)c1ccc(Cl)cc1 (stereo not shown)", "%", 0],
  ["CN(c1ccccc1CNc1nc(Nc2ccc3c(c2)CC(=O)N3)ncc1C(F)(F)F)S(C)(=O)=O", "%", 93.9],
  ["O=C(NOCC1CC1)c1cc(Br)c(F)c(F)c1Nc1ccc(I)cc1Cl", "%", 0],
  ["CCCC(=O)Nc1n[nH]c2ncccc12", "%", 0]
]}

----------
Tested on: SYK
Settings: concentration: 1 μM,replicates: in singlicate; n = 1
Checkbox rule: %Inh lower than 20% = Met; %Inh not lower than 20% = Not met.

{"columns": ["compound", "tested_on", "category_label"],
 "data": [
  ["Cc1n[nH]c2cc(Nc3ccnc(Nc4cccc(CN5CCOCC5)c4)n3)ccc12 [GW682569]", "SYK", "Not met"],
  ["Cc1ccn2nc(-c3ccc(F)cc3)c(-c3ccncc3)c2c1.Cl [GW457859]", "SYK", "Met"],
  ["Cc1ccc2c(-c3ccnc(Nc4ccc(C(F)(F)F)cc4)n3)cnn2n1 [GW819776]", "SYK", "Not met"],
  ["CCCC(=O)Nc1n[nH]c2ncccc12 [SB-601436]", "SYK", "Met"],
  ["NC(=O)Nc1sc(-c2ccc(F)cc2)cc1C(N)=O [GW789449]", "SYK", "Not met"],
  ["COc1cc2ncn(-c3cc(OCC4CCCCC4)c(C(N)=O)s3)c2cc1OC [GSK204559]", "SYK", "Not met"],
  ["C[C@@H]1CCN(C(=O)N2CCCC2)C[C@@H]1N(C)c1ncnc2[nH]ccc12", "SYK", "Not met"],
  ["CCn1c(-c2nonc2N)nc2cncc(CNC3CCNCC3)c21.Cl [SB-747651]", "SYK", "Not met"],
  ["CCOC(=O)N1CCC(n2cnc(-c3ccc(F)cc3)c2-c2ccnc(N)n2)CC1 [SB-219952]", "SYK", "Met"],
  ["COC(=O)c1cccc(NC(=O)NC2CCN(c3ccnc(NCc4ccc(F)cc4)n3)CC2)c1 [GSK1379860]", "SYK", "Not met"],
  ["COc1cccc(OC)c1C(=O)Nc1cccc(-c2nn3ccccc3c2-c2ccnc(Nc3cccc(F)c3)n2)c1 [GSK361065]", "SYK", "Met"],
  ["CC(=O)Nc1ccc(-c2cc3ncnc(SCC(=O)O)c3s2)cc1", "SYK", "Met"],
  ["CN1CCN(CCCNc2nccc(-c3c(-c4ccc(F)cc4)nn4cc(C(N)=O)ccc34)n2)CC1 [GW622475]", "SYK", "Met"],
  ["COC(=O)Nc1nc2cc(Oc3ccc(NC(=O)Nc4cc(C(F)(F)F)ccc4Cl)cc3)ccc2[nH]1.Cl [GW697465]", "SYK", "Not met"],
  ["C[C@@H](Oc1cc(-n2cnc3cc(-c4ccncc4)ccc32)sc1C(N)=O)c1ccccc1Cl [GSK479719]", "SYK", "Not met"],
  ["O=C(Nc1n[nH]c2cc(-c3ccco3)ccc12)C1CC1 [SB-737447]", "SYK", "Met"],
  ["CC(=O)c1c(-c2ccncc2)[nH]c(-c2ccncc2)c1C [GW493036]", "SYK", "Not met"],
  ["Cn1ccc2ncnc(Oc3ccc(NC(=O)Nc4cncc(C(F)(F)F)c4)c(Cl)c3)c21", "SYK", "Met"]
]}
